These entries and their values trace back to paper PMC5540273.

# Tested on: EPHA4;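 also: KINOMEscan kinase panel screen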
# RECORDED_CONDITIONS: concentration: 1 μM, replicates: in singlicate; n = 1
READOUT_NAME: %Inh (%)
One number for each entry, in %.

For orientation, consider the following solved cases.
{"columns": ["RECORD_SMILES", "READING"],
 "data": [
  ["Cc1nc(N(C)[C@H]2CN(C(=O)CC#N)CC[C@H]2C)c2cc[nH]c2n1", 20],
  ["CCn1c(-c2nonc2N)nc2ccccc21", 0],
  ["COc1cc(Nc2ccnc3ccc(C(F)(F)F)cc23)cc(OC)c1OC", 14],
  ["COc1cc(OC)cc(-c2cc3cnc(N)nc3nc2NC(=O)NC(C)(C)C)c1", 0],
  ["O=C(NCCNc1ccnc(Nc2ccc(F)cc2)n1)Nc1ccc2c(c1)OCO2", 0]
]}

For every record below, what is its %Inh?
1. Nc1n[nH]c2ncc(-c3ccccc3)cc12
2. Cc1nn2c(=O)cc(N3CCOCC3)nc2n1Cc1cccc(Cl)c1Cl
3. Nc1nc(N)c2nc(-c3ccccc3)[nH]c2n1

1: 0; 2: 21; 3: 17

Field: %Inh. Fill in for each record below.
1. O=C(Nc1ccc2c(c1)OCO2)NC1CCN(c2ccnc(NCc3ccc(F)cc3)n2)CC1
2. Cc1ccc(-c2ccc3c(ccc4sc5c(c43)NC[C@@H](C)N=C5N(C)C)n2)cn1
3. CCCC(=O)Nc1n[nH]c2ncc(-c3cccc4ccccc34)cc12

1: 13; 2: 0; 3: 2
